# Test system: A549
# Test Description: relative viability (nuclei count vs DMSO), 5 days (fraction); higher = more cells survive
# Measurement Conditions: first compound 4 µM
The entries below are paired with their reported relative viability.

Compound	Experimental Result
Clc1ccc(Nc2nnc(Cc3ccncc3)c3ccccc23)cc1 [Vatalanib] + COc1cc2c(Oc3ccc(NC(=O)C4(C(=O)Nc5ccc(F)cc5)CC4)cc3F)ccnc2cc1OCCCN1CCOCC1 [Foretinib] (partner 0.25 µM)	0.948

Okay, now this compound:
Problem: Which relative viability value is on record for C[C@@H]1CN(CC(=O)Nc2ccc3c(c2)Cc2cccc(-c4cc(=O)cc(N5CCOCC5)o4)c2S3)C[C@H](C)O1 + C[C@]1(O)C[C@@H](c2nc(-c3ccc4ccc(-c5ccccc5)nc4c3)c3c(N)nccn32)C1 [Linsitinib] (partner 1 µM) ?
Result: 0.488
